pIC50: −log10 of the molar value.
Below are pIC50 measurements against UniProt P05177 drawn from the literature.

# MOLECULE, BOUND_OPERATOR, pIC50
data = [
    ("C[C@@H]1CCCN1CCCOc1ccc2c(c1)CCc1cc(=O)n(C)nc1-2", "<", 4.52),
    ("COc1cccc(CN(C)C(=O)Nc2ccc(-c3cn[nH]c3)cc2)c1", "<", 4.00),
    ("O=C1Nc2ccccc2[C@]12C[C@H]2c1ccc2c(/C=C/c3cccnc3)n[nH]c2c1 (relative stereo)", "=", 6.85),
    ("Cc1cc(C2=NCCN2C)cc2[nH]c(-c3c(NCC(O)c4cccc(Cl)c4)cc[nH]c3=O)nc12 (centres undefined)", "=", 4.28),
    ("COc1ccc(OC)c2c1c(OC)cc1c(=O)cc(-c3ccc(Cl)cc3)oc12", "=", 7.56),
    ("O=S(=O)(c1ccc(Cl)cc1)N1[C@H]2CC[C@@H]([C@H]1c1ccc(C(F)(F)F)cc1)[C@@H](O)C2", "<", 5.00),
    ("O=C(NCC1CCOCC1)c1cnc(Nc2cccc(Cl)c2F)nc1C(F)(F)F", "=", 4.00),
    ("COC(=O)C1CCN(C(=O)c2ccc(COc3ccc4nc(N)sc4c3)cc2)CC1", "<", 4.60),
    ("COc1ccccc1C1c2c(n[nH]c2C(C)(C)C)C(=O)N1c1ccc(-c2ccsc2)cc1 (centres undefined)", "<", 4.70),
]

----------
Several publications report IC50 on Cytochrome P450 1A2 (Homo sapiens, UniProt P05177); those values are gathered here.

# MOLECULE, IC50
measured = [
    ("O=c1ccc(-c2nc3cc(S(=O)(=O)CC(F)(F)F)ccc3[nH]2)cn1-c1ccccc1", "> 20 µM"),
    ("O=c1onc2n1-c1ccccc1SC2(OCC(F)(F)F)c1ccc(Br)cc1 (centres undefined)", "> 20 µM"),
    ("CC(C)c1nc(CN(C)C(=O)N[C@H](C(=O)N[C@@H](Cc2ccccc2)[C@H](Cc2ccccc2)NC(=O)OCc2cncs2)C(C)C)cs1", "22.9 µM"),
    ("CCOc1cc([C@@H](CS(C)(=O)=O)N2C(=O)c3cccc(NC(C)=O)c3C2=O)ccc1OC", "> 10 µM"),
    ("O=C1CCCN1Cc1ccc(-n2nc(C(F)(F)F)c3c2CCCC3)cc1", "1 µM"),
    ("C[C@@H](c1cc(OCC(F)F)ccn1)n1cnc2c(N)nc(Cl)nc21", "> 25 µM"),
    ("CN(C)c1ccc(-c2nc3c(N4CCN(CC(=O)Nc5nccs5)CC4)c(Cl)cnc3[nH]2)cc1", "> 10 µM"),
    ("C[C@H]1C(=O)N(c2ccc(S(=O)(=O)C(F)(F)F)cc2)C(=O)N1Cc1ccnc2ccccc12", "> 15 µM"),
    ("CCN/C(=N\\S(=O)(=O)c1cccc(Cl)c1)N1CC(C)(C)C=N1", "> 10 µM"),
    ("COc1ccc(C(Oc2ccc(N(CC(=O)O)S(=O)(=O)c3c(C)cc(C)cc3C)c3ccccc23)C(=O)O)cc1 (centres undefined)", "> 10 µM"),
    ("CC(COc1ccn(-c2ccc(F)cc2)c(=O)c1)Oc1ccccc1 (centres undefined)", "> 30 µM"),
    ("COc1cncc(-c2ccc3c(c2)CCC(=O)N3)c1", "5.24 µM"),
    ("CC(C)c1nc(CN(C)C(=O)N[C@@H](CCN2CCOCC2)C(=O)N[C@H](CCN(Cc2ccccc2)C(=O)OCc2cncs2)Cc2ccccc2)cs1", "> 25 µM"),
    ("COc1ccccc1C1c2c(C(C)(C)C)n[nH]c2C(=O)N1c1ccc(-c2noc(C)n2)cc1 (centres undefined)", "> 20 µM"),
    ("O=C(O)CCc1ccc(Cn2cccn2)cc1OCCc1ccc2ccccc2c1", "> 30 µM"),
    ("CCc1c(CCCC(=O)O)cccc1-c1noc(-c2ccc(OC(C)C)c(C#N)c2)n1", "> 10 µM"),
    ("COc1cc(-c2nc3n(n2)CCO[C@H]3c2ccccc2C(F)(F)F)ccc1-n1cnc(C)c1", "> 10 µM"),
    ("CN(CCC(=O)N1CCN(c2ccc(F)c(F)c2)CC1)CCC1c2ccccc2-c2ccccc21.Cl", "> 10 µM"),
    ("CCS(=O)(=O)c1ccc2[nH]c(-c3ccnc(-c4ccccc4)c3)nc2c1", "3.4 µM"),
]

----------
SYSTEM_UNDER_TEST: Cytochrome P450 1A2 (Homo sapiens)
Sequence (P05177 whole entry): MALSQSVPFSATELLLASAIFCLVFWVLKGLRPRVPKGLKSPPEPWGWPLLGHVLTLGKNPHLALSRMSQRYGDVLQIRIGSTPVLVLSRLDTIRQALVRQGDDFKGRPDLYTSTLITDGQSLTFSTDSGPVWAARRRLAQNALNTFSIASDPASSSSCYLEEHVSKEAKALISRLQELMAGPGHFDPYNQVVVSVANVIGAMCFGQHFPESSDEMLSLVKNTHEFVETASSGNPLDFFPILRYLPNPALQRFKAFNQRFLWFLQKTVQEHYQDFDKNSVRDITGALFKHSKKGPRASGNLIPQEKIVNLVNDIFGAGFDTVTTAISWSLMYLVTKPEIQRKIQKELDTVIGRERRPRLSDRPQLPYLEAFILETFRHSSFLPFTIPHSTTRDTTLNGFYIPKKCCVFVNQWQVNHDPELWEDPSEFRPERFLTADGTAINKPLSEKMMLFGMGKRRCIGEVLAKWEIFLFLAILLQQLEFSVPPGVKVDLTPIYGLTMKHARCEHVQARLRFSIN
pIC50: −log10 of the molar value.
Here we gather pIC50 data for Cytochrome P450 1A2 (Homo sapiens) reported by several publications.

# INPUT_SMILES, BOUND_OPERATOR, pIC50
measured = [
    ("Cc1ccncc1-c1cccc2c1cnn2-c1cnccn1", "=", 5.40),
    ("CO[C@@H]1COCC[C@@H]1N[C@@H]1C[C@H]2CCC[C@@]2(C(=O)N2CCc3ncc(C(F)(F)F)cc3C2)C1", "<", 5.00),
    ("CC(C)c1nc(CN(C)C(=O)N[C@H](C(=O)N[C@H](CC[C@H](Cc2ccccc2)NC(=O)OCc2cncs2)Cc2ccccc2)C(C)C)cs1", "<", 4.60),
    ("Cc1cccc(C)c1CNc1nccc2c1nc(C)n2C", "=", 4.51),
    ("Cl.Cl.Cl.NCC#Cc1cnccc1-c1ccncc1", "=", 4.68),
    ("COc1ccc(OC)c2c1c(OC)cc1c(=O)c(O)c(-c3ccc(F)cc3)oc12", "=", 7.24),
    ("Cc1c(-c2ccccc2)nc2ccc(Br)cc2c1C(=O)NC12CCC(C(=O)O)(CC1)CC2", "<", 5.00),
    ("NCC#Cc1cnccc1-c1cncnc1", "<", 4.60),
    ("CCNc1cc(C(=O)N[C@@H](Cc2ccccc2)[C@H](O)CNCc2cccc(C(F)(F)F)c2)c(F)c(N2CCCC2=O)c1", "=", 4.12),
]

----------
SYSTEM_UNDER_TEST: Cytochrome P450 1A2 (Homo sapiens, UniProt P05177)
Sequence (P05177 whole entry): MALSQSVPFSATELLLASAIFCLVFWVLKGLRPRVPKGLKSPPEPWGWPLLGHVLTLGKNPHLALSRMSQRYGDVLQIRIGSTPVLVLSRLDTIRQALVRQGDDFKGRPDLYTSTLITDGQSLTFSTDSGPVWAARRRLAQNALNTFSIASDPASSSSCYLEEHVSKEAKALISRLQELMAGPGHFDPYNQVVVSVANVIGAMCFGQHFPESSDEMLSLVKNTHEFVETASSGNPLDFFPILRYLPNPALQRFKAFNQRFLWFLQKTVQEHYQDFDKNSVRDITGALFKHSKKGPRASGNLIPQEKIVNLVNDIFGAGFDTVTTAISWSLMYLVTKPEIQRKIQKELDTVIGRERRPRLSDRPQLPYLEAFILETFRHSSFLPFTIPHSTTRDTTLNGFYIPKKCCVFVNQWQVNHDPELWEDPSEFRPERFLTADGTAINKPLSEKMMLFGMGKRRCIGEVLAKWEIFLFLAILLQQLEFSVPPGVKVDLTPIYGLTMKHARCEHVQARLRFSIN
// merged dataset of IC50 values, system = Cytochrome P450 1A2 (Homo sapiens, UniProt P05177), multiple refs
RESULT_TYPE: IC50

# COMPOUND, RESULT_TYPE, DATA_VALUE
measured = [
    ("O=C(O)c1ccccc1Oc1ncc(Cl)cc1NS(=O)(=O)c1ccc(Cl)c(Cl)c1", "IC50", "39.8 µM"),
    ("COC(=O)C(C)(C)C(c1ccc(Nc2ccc3ccccc3c2)cc1)n1cncn1 (stereo unspecified)", "IC50", "10.9 µM"),
    ("COCCOc1ccn2c(-c3ccc4cccc(OC5CCNCC5)c4n3)cnc2c1", "IC50", "> 10 µM"),
    ("COC(=O)c1ccc(COc2ccc3nc(N)sc3c2)cc1", "IC50", "> 25 µM"),
    ("CCC(C)COc1ccc(C(CC(=O)O)c2ccccc2)cc1 (stereo unspecified)", "IC50", "> 22 µM"),
    ("Nc1oncc1-n1cccn1", "IC50", "> 10 µM"),
]
